The measurements presented in this section are drawn from the RNAGym collection of RNA variant scans (doi:10.7554/elife.80360).

B1: HDV Ribozyme (parent)
chain: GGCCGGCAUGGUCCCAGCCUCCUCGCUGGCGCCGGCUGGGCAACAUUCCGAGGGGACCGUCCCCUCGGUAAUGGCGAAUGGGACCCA

Variants of: B1
Assay: self-cleavage, relative activity (ratio to wild type); higher = more cleavage; co-transcriptional

>  <Variant Identifier>
G82A C86G

>  <self-cleavage>
0.279

$$$$
>  <Variant Identifier>
G6U C48A

>  <self-cleavage>
0.542

$$$$
>  <Variant Identifier>
G29U C86U

>  <self-cleavage>
0.0959

$$$$
>  <Variant Identifier>
G2U A87U

>  <self-cleavage>
0.0747

$$$$
>  <Variant Identifier>
C33U U60C

>  <self-cleavage>
0.773

$$$$
>  <Variant Identifier>
C57G A71C

>  <self-cleavage>
0.852

$$$$
>  <Variant Identifier>
C26U G54C

>  <self-cleavage>
1.03

$$$$
>  <Variant Identifier>
C32A C36U

>  <self-cleavage>
0.0733

$$$$
>  <Variant Identifier>
A43G G73C

>  <self-cleavage>
0.256

$$$$
>  <Variant Identifier>
G35C A51C

>  <self-cleavage>
0.297

$$$$
>  <Variant Identifier>
G2U G39U

>  <self-cleavage>
0.0543

$$$$
>  <Variant Identifier>
C7G U69C

>  <self-cleavage>
0.277

$$$$
>  <Variant Identifier>
G17U A56U

>  <self-cleavage>
0.533

$$$$
>  <Variant Identifier>
U9A C26U

>  <self-cleavage>
1.12

$$$$
>  <Variant Identifier>
C32A G54U

>  <self-cleavage>
0.102

$$$$
>  <Variant Identifier>
G53C G68C

>  <self-cleavage>
0.372

$$$$
>  <Variant Identifier>
C13U A70G

>  <self-cleavage>
0.475

$$$$
>  <Variant Identifier>
G74C G81U

>  <self-cleavage>
0.0831

$$$$
>  <Variant Identifier>
U9C C63A

>  <self-cleavage>
1.14

$$$$
>  <Variant Identifier>
C62G C64G

>  <self-cleavage>
0.427

$$$$
>  <Variant Identifier>
C18A C30A

>  <self-cleavage>
0.141

$$$$
>  <Variant Identifier>
A56G C86G

>  <self-cleavage>
1.17

$$$$
>  <Variant Identifier>
A16G C44U

>  <self-cleavage>
0.615

$$$$
>  <Variant Identifier>
G1C C44U

>  <self-cleavage>
0.0615

$$$$
>  <Variant Identifier>
A45C A77G

>  <self-cleavage>
0.534

$$$$
>  <Variant Identifier>
G53U C64A

>  <self-cleavage>
0.777

$$$$
>  <Variant Identifier>
C15A A45G

>  <self-cleavage>
0.8

$$$$
>  <Variant Identifier>
C41A U65G

>  <self-cleavage>
0.95

$$$$
>  <Variant Identifier>
U79A G80U

>  <self-cleavage>
0.148

$$$$
>  <Variant Identifier>
G25C G53C

>  <self-cleavage>
0.356

$$$$
>  <Variant Identifier>
C4A G74C

>  <self-cleavage>
0.0997

$$$$
>  <Variant Identifier>
C4A A78U

>  <self-cleavage>
0.0437

$$$$
>  <Variant Identifier>
G11C A51U

>  <self-cleavage>
0.426

$$$$
>  <Variant Identifier>
C49A U65G

>  <self-cleavage>
0.539

$$$$
>  <Variant Identifier>
G29U G80C

>  <self-cleavage>
0.0504

$$$$
>  <Variant Identifier>
C15U G68U

>  <self-cleavage>
0.88

$$$$
>  <Variant Identifier>
U12G C86U

>  <self-cleavage>
0.403

$$$$
>  <Variant Identifier>
C30U C57U

>  <self-cleavage>
0.932

$$$$
>  <Variant Identifier>
U12G A42C

>  <self-cleavage>
0.217

$$$$
>  <Variant Identifier>
U27A C41G

>  <self-cleavage>
0.858

$$$$
>  <Variant Identifier>
G35C G73C

>  <self-cleavage>
0.269

$$$$
>  <Variant Identifier>
G39U C85G

>  <self-cleavage>
0.69

$$$$
>  <Variant Identifier>
U46C G55U

>  <self-cleavage>
0.831

$$$$
>  <Variant Identifier>
G5U C26A

>  <self-cleavage>
0.697

$$$$
>  <Variant Identifier>
C48G C62U

>  <self-cleavage>
0.746

$$$$
>  <Variant Identifier>
C13G G68U

>  <self-cleavage>
0.0978

$$$$
>  <Variant Identifier>
A45U C49U

>  <self-cleavage>
0.706

$$$$
>  <Variant Identifier>
G52A U60G

>  <self-cleavage>
0.897

$$$$
>  <Variant Identifier>
U12G C85A

>  <self-cleavage>
0.712

$$$$
>  <Variant Identifier>
U20G U72C

>  <self-cleavage>
0

$$$$
>  <Variant Identifier>
C33G A70G

>  <self-cleavage>
0.104

$$$$
>  <Variant Identifier>
U23G G68C

>  <self-cleavage>
0.482

$$$$
>  <Variant Identifier>
A8U G11C

>  <self-cleavage>
0.0978

$$$$
>  <Variant Identifier>
U37C U60G

>  <self-cleavage>
0.906

$$$$
>  <Variant Identifier>
C58U G59C

>  <self-cleavage>
0.923

$$$$
>  <Variant Identifier>
C19A C24U

>  <self-cleavage>
0.0674

$$$$
>  <Variant Identifier>
G28A C30A

>  <self-cleavage>
0.149

$$$$
>  <Variant Identifier>
C30U C58G

>  <self-cleavage>
0.569

$$$$
>  <Variant Identifier>
G5U U9G

>  <self-cleavage>
0.554

$$$$
>  <Variant Identifier>
A8C C21G

>  <self-cleavage>
0.0594

$$$$
>  <Variant Identifier>
U46G G68A

>  <self-cleavage>
0.608

$$$$
>  <Variant Identifier>
G1U C14A

>  <self-cleavage>
0.222

$$$$
>  <Variant Identifier>
C24A G81U

>  <self-cleavage>
0.185

$$$$
>  <Variant Identifier>
C41A G76C

>  <self-cleavage>
1.06

$$$$
>  <Variant Identifier>
C62G G80C

>  <self-cleavage>
0.0791

$$$$
>  <Variant Identifier>
A43U A45C

>  <self-cleavage>
0.877

$$$$
>  <Variant Identifier>
C3U U27A

>  <self-cleavage>
0.701

$$$$
>  <Variant Identifier>
G1C U79G

>  <self-cleavage>
0.0723

$$$$
>  <Variant Identifier>
G40C A83C

>  <self-cleavage>
0.0755

$$$$
>  <Variant Identifier>
A8G G35A

>  <self-cleavage>
0.332

$$$$
>  <Variant Identifier>
C61A G73C

>  <self-cleavage>
0.415

$$$$
>  <Variant Identifier>
A51C G68A

>  <self-cleavage>
0.916

$$$$
>  <Variant Identifier>
C24G A70G

>  <self-cleavage>
0.0594

$$$$
>  <Variant Identifier>
U23G G82U

>  <self-cleavage>
0.17

$$$$
>  <Variant Identifier>
A16C G53U

>  <self-cleavage>
0.755

$$$$
>  <Variant Identifier>
G2U G35U

>  <self-cleavage>
0.0318

$$$$
>  <Variant Identifier>
G29C G59U

>  <self-cleavage>
0.163

$$$$
